Molecular target: recombinant human MASP2 (amino acids 297-686, C-terminal His Tag) (human, UniProt O00187 297-686)
Sequence (O00187 other isoform, or with tags, fused parts or gaps limits assumed): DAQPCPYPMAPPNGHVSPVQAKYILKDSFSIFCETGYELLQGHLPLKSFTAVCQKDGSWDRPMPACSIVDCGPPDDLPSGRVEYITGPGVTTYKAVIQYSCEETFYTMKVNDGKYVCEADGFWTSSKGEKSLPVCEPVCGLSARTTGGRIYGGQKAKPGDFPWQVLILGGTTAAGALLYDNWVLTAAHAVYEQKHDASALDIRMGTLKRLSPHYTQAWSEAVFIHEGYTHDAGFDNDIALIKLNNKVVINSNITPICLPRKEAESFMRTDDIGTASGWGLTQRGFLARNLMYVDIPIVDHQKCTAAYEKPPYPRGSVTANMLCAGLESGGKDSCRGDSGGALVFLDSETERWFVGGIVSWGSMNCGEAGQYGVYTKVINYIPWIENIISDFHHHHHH
Experiment: cell-based or functional assay
Bridges are numbered along the chain shown (N, C = ends). Where no end group is shown, it is not given here. [ ]: non-standard residue; d: D form. Oic = O=C(O)[C@@H]1C[C@@H]2CCCC[C@@H]2N1; tBuAla = CC(C)(C)C[C@H](N)C(=O)O; Pen = CC(C)(S)[C@H](N)C(=O)O; NMeC = CN[C@@H](CS)C(=O)O; Orn = NCCC[C@H](N)C(=O)O; Ahx = NCCCCCC(=O)O
Flag rule - human MASP2 IC50 less than 60 nM flags Satisfied; the remaining entries get Not satisfied.

# binder, classification
measured = [
    ("cyclo([Ahx]AICSRSLP[Oic]ICIP) (disulfide 4-12; also: TFA salt) [Example 25: (Ahx)**-AIC+SRSLP-(Oic)-IC+IP**]", "Not satisfied"),
    ("cyclo([Ahx]AICSRS[tBuAla]PPI[NMeC]IPD) (disulfide 4-12; also: TFA salt) [Example 32: (Ahx)**-AIC+SRS-((tBu)A)-PPI-((N-Me)C)+-IPD**]", "Not satisfied"),
    ("cyclo([Ahx]AICSRS[tBuAla]PPI[Pen]I) (disulfide 4-12; also: TFA salt) [Example 72: (Ahx)**-AIC+SRS-((tBu)A)-PPI-(Pen)+-I**]", "Satisfied"),
    ("[Orn]AICSRS[tBuAla]PPI[NMeC]IPD-NH2 (lactam 1-15; disulfide 4-12; also: TFA salt) [Example 44: (Orn)++-AIC+SRS-((tBu)A)-PPI-((N-Me)C)+-IPD++-NH2]", "Not satisfied"),
    ("cyclo([Ahx]AICSRS[tBuAla]PPI[Pen]IPD) (disulfide 4-12; also: TFA salt) [Example 27: (Ahx)**-AIC+SRS-((tBu)A)-PPI-(Pen)+-IPD**]", "Satisfied"),
]

Every entry's value here was drawn from patent US20240010684A1.
